The origin of these recorded values is PubChem BioAssay (EPA / NIEHS).

Read-out: Glutathione S-transferase M3 (GSTM3), GSTM3 (gene 2947)
assay.info: LTEA_HepaRG_GSTM3: Life Technologies and Expression Analysis (LTEA) Assay for Glutathione S-transferase M3 (GSTM3) using HepaRG (AID 2283501)
condition: mRNA level, 48 h; actives raise or lower the signal
The source made the active and inactive calls. How the source made its calls: active means hit-call score of the fitted dose curve at least 0.9, where 1 is the maximum; inactive means score below 0.9.
// classify into active, inactive

Some entries whose results are on file:
COc1cc(-c2nc(NC(=O)c3cc4cc(C)cc(C)c4n3CC(=O)O)sc2CCC2CCCCC2)c(OC)cc1Cl ... active
CNC(=O)[C@H]1O[C@@H](n2cnc3c(NCc4cc(Cl)ccc4OCc4cc(C)no4)ncnc32)[C@H](O)[C@@H]1N ... inactive
Clc1cc(Cl)c(Cl)cc1Cl ... inactive
CCCCCCCCCCCCCCCC ... inactive
COc1ccc(S(=O)(=O)N2C(=O)[C@@](c3ccccc3OC)(N3C[C@H](O)C[C@H]3C(=O)N(C)C)c3cc(Cl)ccc32)c(OC)c1 ... active
Cc1cccc(C)c1O ... inactive

Q. Test call, this compound: `CCCCCCCCCCO`
A. inactive

Q. Test call, this compound: `CC(C)c1ccc(C(=O)N=C(N)N)cc1S(C)(=O)=O`
A. active

Q. Test call, this compound: COCCOC[C@H](CC1(C(=O)NC2CCC(C(=O)O)CC2)CCCC1)C(=O)Oc1ccc2c(c1)CCC2 (stereo partly specified)
A. inactive

Q. Test call, this compound: `Cc1ccc(N(C)C)cc1`
A. inactive

Q. Test call, this compound: `C=CCc1ccc(O)c(OC)c1`
A. inactive

---

assay.info: ATG_DR4_LXR_CIS: Attagene CIS-FACTORIAL HepG2 Assay for human Liver X Receptor (LXR), DR4 submotif (AID 2282929)
condition: HepG2 Attagene DR4 cis-reporter, mRNA transcription; actives raise or lower the signal
The source made the active and inactive calls. Rule for the calls: active = hit-call score of the fitted dose curve at least 0.9, where 1 is the maximum; inactive = score below 0.9.
measurement.label: AC50

Worked set:
CCOc1ccc2c(c1)C(C)=CC(C)(C)N2 ... 175 µM (active)
CCCCCCCCCCCC(=O)OC ... inactive
CCCCN(CCCC)CCCC ... inactive
COc1cc(C=O)ccc1O ... inactive
CCc1c(C(=O)NN2CCCCC2)nn(-c2ccc(Cl)cc2Cl)c1-c1ccc(Br)cc1 ... 1.91 µM (active)
Cc1ccc(C)c(C)c1 ... inactive
FC(F)(F)C(F)(F)C(F)(F)C(F)(F)C(F)(F)C(F)(F)CCI ... inactive
CNC(=O)[C@H]1O[C@@H](n2cnc3c(NCc4cc(Cl)ccc4OCc4cc(C)no4)ncnc32)[C@H](O)[C@@H]1N ... inactive

The measured AC50 associated with `Oc1ccc2ccccc2c1N=Nc1ccccc1` reads inactive

The measured AC50 associated with CC1(C)CC(N=C=O)CC(C)(CN=C=O)C1 (centres undefined) reads inactive

The measured AC50 associated with `CC(=O)OCCOCCOCCOC(C)=O` reads inactive

---

target: Estrogen receptor (Homo sapiens) (UniProt P03372)
Sequence (P03372 whole entry, looked up): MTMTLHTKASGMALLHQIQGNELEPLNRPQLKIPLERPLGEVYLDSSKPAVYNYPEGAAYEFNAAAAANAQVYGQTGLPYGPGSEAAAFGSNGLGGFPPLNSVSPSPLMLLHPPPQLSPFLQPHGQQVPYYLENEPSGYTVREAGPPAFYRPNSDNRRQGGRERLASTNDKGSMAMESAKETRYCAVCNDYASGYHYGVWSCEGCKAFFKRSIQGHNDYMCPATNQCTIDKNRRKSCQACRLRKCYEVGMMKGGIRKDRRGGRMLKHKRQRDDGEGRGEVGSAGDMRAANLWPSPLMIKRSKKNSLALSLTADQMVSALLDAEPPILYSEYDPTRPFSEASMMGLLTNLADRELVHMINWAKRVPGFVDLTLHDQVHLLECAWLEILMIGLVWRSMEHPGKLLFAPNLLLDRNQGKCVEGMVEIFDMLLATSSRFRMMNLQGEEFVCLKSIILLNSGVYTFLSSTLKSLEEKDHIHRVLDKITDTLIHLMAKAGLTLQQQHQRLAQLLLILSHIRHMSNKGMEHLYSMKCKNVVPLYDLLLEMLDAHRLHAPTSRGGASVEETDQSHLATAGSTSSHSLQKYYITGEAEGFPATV
assay.info: OT_ERa_GFPERaERE_0480: Odyssey Thera (OT) 8-hour HeLa Transcription Induction Assay for Estrogen Receptor (AID 2283381)
Active and inactive are the calls of the source. The calls were made as follows: active = hit-call score of the fitted dose curve at least 0.9, where 1 is the maximum; inactive = score below 0.9.
// classify into true (active), false (inactive)

Some entries whose results are on file:
Cc1ccc(C)c(O)c1C ... false
CCCCCCCCCCCC(=O)OC ... false
CCOC(=O)CCC(=O)OCC ... false

Q. Test call, this molecule: `CN[C@H]1CC[C@@H](c2ccc(Cl)c(Cl)c2)c2ccc(S(N)(=O)=O)cc21`
A. true

Q. Test call, this molecule: CC(=O)C(C)=CC1C(C)=CCCC1(C)C (stereo not given)
A. false
